# Test system: HCT-15 colon
# Measurement description: NCI tumour cell line growth inhibition, 48 h; in the data active = GI50 below about 0.43 µM; inactive = the rest
Classes used: active, inactive

Cc1ccccc1NC(=O)N/C(N)=N/c1nc(C)c(C)s1    active
Nc1c(C(=O)c2cccc(C(O)(CO)CO)c2)cnn1-c1ccc(F)cc1    inactive
Cc1cc(N2CCCCC2)nc(NCc2cc(Nc3ccnc4cc(Cl)ccc34)ccc2F)n1    inactive
COc1ccc(NC(=O)COc2ccccc2)c(C(N)=O)c1    inactive
COc1ccc(Nc2[nH]n(C3=Nc4ccccc4Sc4ccccc43)c(=O)c2C#N)cc1    inactive
C=C(c1ccc(OC)c(/C=C/C(=O)c2cc(OC)c(OC)c(OC)c2)c1)c1cc(OC)c(OC)c(OC)c1    inactive
CN(C)c1ccc(/C=N/NC(=O)CSc2nc3sc4c(c3c(=O)n2-c2ccccc2)CCCCC4)cc1    inactive
